Test system: HeLa
Test: Cytotoxicity against human HeLa cells after 4 days by Coulter counter analysis
Type: functional, cell-based
Details: 96 h
pIC50: −log10 of the molar value.
Classification field: TRUE = pIC50 at or over 5; FALSE = pIC50 under 5.

[
  {
    "givenSmiles": "C=C(Br)C(=O)Nc1ccc(/C=C2\\SC(=O)N(Cc3cccc(F)c3)C2=O)cc1",
    "classification": "TRUE"
  },
  {
    "givenSmiles": "Nc1cccc(/C=C2\\SC(=O)N(Cc3ccc(F)cc3)C2=O)c1",
    "classification": "FALSE"
  }
]

Confirm if pIC50 reported for the compound `C=C(Br)C(=O)Nc1ccc(/C=C2\SC(=O)N(Cc3ccc(F)cc3)C2=O)cc1` is 5 or above.
TRUE

Does the compound `C=C(Br)C(=O)Nc1cccc(/C=C2\SC(=O)N(Cc3cccc(F)c3)C2=O)c1` have recorded pIC50 that is 5 or more?
TRUE

Identify whether the reported pIC50 of the following compound is 5 or greater: `C=C(Br)C(=O)Nc1cccc(/C=C2\SC(=O)N(Cc3ccccc3)C2=O)c1`
TRUE
